# target: hMGL (Homo sapiens)
# Construct: A full-length cDNA clone of the human MGL transcript variant 1; made in house; host or cells: E. coli BL21 (DE3)
# Sequence (Q99685 2-303 limits assumed): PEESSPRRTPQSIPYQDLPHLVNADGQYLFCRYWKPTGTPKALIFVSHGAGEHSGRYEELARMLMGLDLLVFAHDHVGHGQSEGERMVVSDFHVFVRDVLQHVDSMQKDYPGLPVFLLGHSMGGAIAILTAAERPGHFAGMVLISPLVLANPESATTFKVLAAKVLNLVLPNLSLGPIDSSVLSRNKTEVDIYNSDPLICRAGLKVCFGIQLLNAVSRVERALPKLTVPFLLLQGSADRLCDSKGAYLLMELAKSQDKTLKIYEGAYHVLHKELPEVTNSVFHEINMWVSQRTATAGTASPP
# assay_details: Fluorescent enzyme assay, MGL (AHMMCE hydrolysis)
# Assay type: biochemical
# condition_notes: 10 nM inhibitor; AHMMCE substrate; screening assay; read-out: % Inhibition of Enzyme by inhibitor, MGL, 10 nM
Listed below: inhibition at 0.01 µM values for each entry.
readout_type: inhibition at 0.01 µM (%)

compound	target	readout_type	unit_abbreviation	reading
CN(C)C(=O)n1nnnc1Cc1ccc(OC(F)(F)F)cc1 [Compound 19b]	hMGL (Homo sapiens)	inhibition at 0.01 µM	%	76
CN(C)C(=O)n1nnnc1CC(=O)c1ccccc1 [Compound 4]	hMGL (Homo sapiens)	inhibition at 0.01 µM	%	90
CN(C)C(=O)n1nnnc1-c1cc2ccccc2[nH]1 [Compound 3b]	hMGL (Homo sapiens)	inhibition at 0.01 µM	%	92
CN(C(=O)n1nnc(Cc2ccc(Cl)cc2Cl)n1)c1ccccc1 [Compound 7a]	hMGL (Homo sapiens)	inhibition at 0.01 µM	%	58
CN(C)C(=O)n1cnnn1 [Compound 1b]	hMGL (Homo sapiens)	inhibition at 0.01 µM	%	13
CN(C)C(=O)n1ncnn1 [Compound 1a, N,N-dimethyl-2H-tetrazole-2-carboxamide]	hMGL (Homo sapiens)	inhibition at 0.01 µM	%	58
CN(C)C(=O)n1nnnc1Cc1ccc(I)cc1 [Compound 18b]	hMGL (Homo sapiens)	inhibition at 0.01 µM	%	64
CN(C)C(=O)n1nnc(Cc2ccc(Br)cc2)n1 [Compound 16a]	hMGL (Homo sapiens)	inhibition at 0.01 µM	%	98
Cc1ccc(Cc2nnn(C(=O)N(C)C)n2)cc1 [Compound 26a]	hMGL (Homo sapiens)	inhibition at 0.01 µM	%	96
CN(C)C(=O)n1nnnc1Cc1ccc(Br)cc1 [Compound 16b]	hMGL (Homo sapiens)	inhibition at 0.01 µM	%	64
CSc1ccc(Cc2nnn(C(=O)N(C)C)n2)cc1 [Compound 23a]	hMGL (Homo sapiens)	inhibition at 0.01 µM	%	98
CN(C)C(=O)n1nnc(Cc2ccc([N+](=O)[O-])cc2)n1 [Compound 22a]	hMGL (Homo sapiens)	inhibition at 0.01 µM	%	97
CN(C)C(=O)n1nnnc1Cc1ccc(C(F)(F)F)cc1 [Compound 20b]	hMGL (Homo sapiens)	inhibition at 0.01 µM	%	6
CN(C)C(=O)n1nnc(Cc2ccc(Cl)cc2)n1 [Compound 21a]	hMGL (Homo sapiens)	inhibition at 0.01 µM	%	97
COc1ccc(Cc2nnn(C(=O)N(C)C)n2)cc1 [Compound 24a]	hMGL (Homo sapiens)	inhibition at 0.01 µM	%	21
CN(C(=O)n1nnnc1Cc1ccc(Cl)cc1Cl)c1ccccc1 [Compound 7b]	hMGL (Homo sapiens)	inhibition at 0.01 µM	%	8
Cc1ccc(Cc2nnnn2C(=O)N(C)C)cc1 [Compound 26b]	hMGL (Homo sapiens)	inhibition at 0.01 µM	%	23
CN(C)C(=O)n1nnc(Cc2ccccc2Cl)n1 [Compound 45]	hMGL (Homo sapiens)	inhibition at 0.01 µM	%	93
CN(C)C(=O)n1nnc(C(F)(F)c2ccccc2)n1 [Compound 46]	hMGL (Homo sapiens)	inhibition at 0.01 µM	%	2
